IC50 values, listed per item
- System: NCI-H526;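 further: growth inhibition of the human NCI-H526 cell line, measured by a cell viability assay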
- experiment: cells
- Type: functional, cell-based
- conditions: Homo sapiens
- Description: SANGER: Inhibition of human NCI-H526 cell growth in a cell viability assay.
The reply should be a number in µM, with the unit left off.

# substance_smiles, assay_value
rows = [
    ("Fc1cc(-c2cc[nH]/c(=N/c3ccc(-n4cnc(N5CCOCC5)n4)cc3)n2)cc(N2CCOCC2)c1", 0.957),
]

Request the reported IC50 associated with CC[C@@]1(O)C(=O)OCc2c1cc1n(c2=O)Cc2cc3ccccc3nc2-1
0.00103

----------
- Tested on: FTC-133
- experiment: cells
- Assay type: functional, cell-based
- conditions: Homo sapiens
IC50 values, listed per item
The reply should be a number in µM, with the unit left off.

# substance_smiles, endpoint_unit, IC50
data = [
    ("CC(C)=CC[C@@H](O)C1=CC(=O)c2c(O)ccc(O)c2C1=O", "µM", 5.74),
]

Request the reported IC50 associated with C[C@]12O[C@H](C[C@]1(O)CO)n1c3ccccc3c3c4c(c5c6ccccc6n2c5c31)CNC4=O
0.158

Request the reported IC50 associated with CC[C@]1(O)C[C@@H]2CN(CCc3c([nH]c4ccccc34)[C@@](C(=O)OC)(c3cc4c(cc3OC)N(C)[C@H]3[C@@](O)(C(=O)OC)[C@H](OC(C)=O)[C@]5(CC)C=CCN6CC[C@]43[C@@H]65)C2)C1
0.00844
